Each entry below carries its reported pIC50.
target: CDK9/Cyclin T1 complex (Homo sapiens, UniProt P50750); assay: CDK9 inhibition assay (Caliper/LabChip EZ Reader kinase assay); format: biochemical; conditions: Table 1; CDK9/Cyclin T1 8 nM, ATP 2 mM, 15 min at 27° C.
Sequence (P50750 whole entry, species assumed): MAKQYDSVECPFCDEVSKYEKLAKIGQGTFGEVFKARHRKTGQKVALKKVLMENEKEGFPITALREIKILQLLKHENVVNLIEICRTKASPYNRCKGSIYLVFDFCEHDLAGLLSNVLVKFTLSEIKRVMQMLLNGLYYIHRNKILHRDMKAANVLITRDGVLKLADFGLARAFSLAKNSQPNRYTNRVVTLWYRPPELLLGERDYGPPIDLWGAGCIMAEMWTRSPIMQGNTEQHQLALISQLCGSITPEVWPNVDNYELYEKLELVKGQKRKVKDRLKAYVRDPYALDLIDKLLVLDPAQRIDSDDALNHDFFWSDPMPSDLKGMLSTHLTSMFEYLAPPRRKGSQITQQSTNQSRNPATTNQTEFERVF
Sequence (O60563 whole entry partner, species assumed): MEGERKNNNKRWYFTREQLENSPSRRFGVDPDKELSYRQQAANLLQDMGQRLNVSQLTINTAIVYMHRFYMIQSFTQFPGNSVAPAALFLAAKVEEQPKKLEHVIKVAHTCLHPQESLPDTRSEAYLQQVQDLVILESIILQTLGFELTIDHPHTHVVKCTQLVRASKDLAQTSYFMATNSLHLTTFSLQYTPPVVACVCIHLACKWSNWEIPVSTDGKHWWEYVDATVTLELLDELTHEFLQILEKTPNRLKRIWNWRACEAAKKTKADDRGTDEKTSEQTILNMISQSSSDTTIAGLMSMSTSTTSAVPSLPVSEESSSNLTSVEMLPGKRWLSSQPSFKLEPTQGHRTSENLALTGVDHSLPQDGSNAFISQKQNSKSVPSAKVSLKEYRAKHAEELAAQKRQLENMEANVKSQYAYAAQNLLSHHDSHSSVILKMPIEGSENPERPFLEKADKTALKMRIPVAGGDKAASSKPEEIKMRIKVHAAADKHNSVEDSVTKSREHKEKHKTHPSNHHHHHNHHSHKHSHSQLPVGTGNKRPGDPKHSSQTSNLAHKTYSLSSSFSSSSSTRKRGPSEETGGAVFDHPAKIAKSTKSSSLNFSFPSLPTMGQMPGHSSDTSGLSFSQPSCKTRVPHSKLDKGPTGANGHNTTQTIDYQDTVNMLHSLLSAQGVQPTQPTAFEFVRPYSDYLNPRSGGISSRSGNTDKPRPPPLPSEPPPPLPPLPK
pIC50: −log10 of the molar value.

| LINE NOTATION | pIC50 |
| --- | --- |
| CCc1cnc(N[C@H]2CCCNC2)nc1-c1c[nH]c2nc(C#N)ccc12 | < 5.30 |
| Fc1cccc(-c2ccc3c(-c4nc(N[C@H]5CCCNC5)ncc4C(F)(F)F)c[nH]c3c2)c1 | < 5.30 |
| FC(F)(F)c1cnc(N[C@H]2CCCNC2)nc1-c1c[nH]c2cc(-c3cccc4cnccc34)ccc12 | < 5.30 |
| CCS(=O)(=O)c1cccc2c(-c3nc(N[C@H]4CCCNC4)ncc3C(F)(F)F)c[nH]c12 | 5.30 to 6.70 |
| CCc1cnc(N[C@H]2CCCNC2)nc1-c1c[nH]c2c(F)c(C#N)ccc12 | < 5.30 |
| CCc1cnc(N[C@H]2CCCNC2)nc1-c1c[nH]c2cc(C#N)ccc12 | < 5.30 |

Documented pIC50 of CC(C)c1cnc(N[C@H]2CCCNC2)nc1-c1n[nH]c2nc(C#N)ccc12 : < 5.30

Documented pIC50 of FC(F)(F)c1cnc(N[C@H]2CCCNC2)nc1-c1c[nH]c2cc(-c3ccnnc3)ccc12 : 5.30 to 6.70
